- TEST_TARGET: human muscarinic M3 receptor (Homo sapiens)
- Construct: expressed in transfected cells
- Sequence (P20309 whole entry): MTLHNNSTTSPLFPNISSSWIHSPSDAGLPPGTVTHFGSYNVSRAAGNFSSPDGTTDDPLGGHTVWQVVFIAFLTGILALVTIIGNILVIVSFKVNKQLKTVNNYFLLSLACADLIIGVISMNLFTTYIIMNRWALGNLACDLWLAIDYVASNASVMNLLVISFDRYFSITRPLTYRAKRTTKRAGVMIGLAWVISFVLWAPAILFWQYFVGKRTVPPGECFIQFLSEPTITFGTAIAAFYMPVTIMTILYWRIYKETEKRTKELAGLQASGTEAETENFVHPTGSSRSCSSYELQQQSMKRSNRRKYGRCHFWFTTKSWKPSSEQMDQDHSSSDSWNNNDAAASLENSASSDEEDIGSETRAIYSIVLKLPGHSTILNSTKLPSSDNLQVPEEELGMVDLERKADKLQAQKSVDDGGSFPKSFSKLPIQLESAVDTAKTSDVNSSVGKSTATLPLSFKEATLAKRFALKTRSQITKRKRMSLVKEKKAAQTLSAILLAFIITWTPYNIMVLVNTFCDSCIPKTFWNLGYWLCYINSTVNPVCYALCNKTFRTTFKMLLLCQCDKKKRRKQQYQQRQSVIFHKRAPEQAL
- ASSAY_DETAILS: Alphascreen Surefire phospho-ERK1/2 functional assay, M3
- Assay type: cell-based
- SETTINGS: CHO, read-out: M3 % Emax cf. ACh
Assign Emax to each entry below.
Reply numerically in %, unit not repeated.

Exercise: // Input: CCOC(=O)N1CCCN(C2CCC3(CC2)C(=O)Nc2cc(C)ccc23)CC1 (single isomer, unassigned) [4-6 isomer 2] . Output its Emax only.
Key: 17

Exercise: Return Emax (reported value) for this compound: Cc1noc([C@@H]2CCCN(C3CCC4(CC3)C(=O)Nc3ccccc34)C2)n1 (single isomer, unassigned) [22-1 Isomer 1]
Key: 11

Exercise: Identify Emax associated with the compound COC(=O)N1CCCN(C2CCC(C#N)(c3ccccc3)CC2)CC1 (mixture of isomers) [3-28 mixture of isomers]
Key: 7

Exercise: Identify measured Emax associated with CCOC(=O)N1CCCN(C2CCC(C#N)(c3ccc(OC)cc3)CC2)CC1 (mixture of isomers) [3-9 mixture of isomers]
Key: 0

Exercise: Return the recorded Emax value; entry: CCOC(=O)N[C@H]1CCN(C2CCC3(CC2)C(=O)Nc2ccc(C)cc23)C1 (single isomer, unassigned) [2-5 isomer 1]
Key: 15

Exercise: Give Emax for CCOC(=O)NCC1CCN(C2CCC3(CC2)C(=O)Nc2ccccc23)CC1 (single isomer, unassigned) [7-2 isomer 1]
Key: 3

Exercise: Return reported Emax. Input compound: CCOC(=O)N1CCCN(C2CCC(C#N)(c3ccccc3Cl)CC2)CC1 (mixture of isomers) [3-4 mixture of isomers]
Key: 40

Exercise: Given the compound CCOC(=O)N1CCCN(C2CCC3(CC2)C(=O)Nc2cc(OC)ccc23)CC1 (single isomer, unassigned) [4-11 isomer 2] , write its reported Emax.
Key: 2

Exercise: Answer with the recorded Emax of CCc1noc([C@H]2CC[C@@H](NC3CCC(C#N)(c4ccccc4)CC3)C2)n1 (single isomer, unassigned) [19-2 Isomer 2] only.
Key: 5

Exercise: Consider the compound CCOC(=O)N1CCCN(C2CCC(C#N)(c3ccc(Cl)cn3)CC2)CC1 (mixture of isomers) [3-16 mixture of isomers] . State its measured Emax.
Key: 39

Exercise: Specify reported Emax for the compound shown: C#CCOC(=O)N1CCCN(C2CCC(C#N)(c3ccc(OC)cn3)CC2)CC1 (single isomer, unassigned) [3-31 Isomer 1]
Key: 0

Exercise: Fill in reported Emax for this entry: CCOC(=O)N1CCCN(C2CCC(C#N)(c3ccccn3)CC2)CC1 (mixture of isomers) [3-11 mixture of isomers]
Key: 15

Exercise: Indicate the recorded Emax value for this compound: CCOC(=O)N[C@H]1CCN(C2CCC3(CC2)C(=O)Nc2cc(F)ccc23)C1 (single isomer, unassigned) [2-7 isomer 2]
Key: 2

Exercise: Fill in Emax for record Cc1ccc2c(c1)NC(=O)C21CCC(N2CCC[C@@H](c3nc(C)no3)C2)CC1 (single isomer, unassigned) [22-4 Isomer 1]
Key: 17

Exercise: Determine its reported Emax: CCOC(=O)N1CCCN(C2CCC(C#N)(c3ccc(F)cc3)CC2)CC1 (mixture of isomers) [3-3 mixture of isomers]
Key: 35

Exercise: Return value of Emax for input CCOC(=O)N1CC2(CCN(C3CCC(C#N)(c4ccccc4)CC3)CC2)C1 (single isomer, unassigned) [11-1 Isomer 2] , no commentary.
Key: 3

Exercise: For CCOC(=O)N[C@H]1CCN(C2CCC(C#N)(c3ccccc3)CC2)C1 (single isomer, unassigned) [1-1 Isomer 2] , write its Emax.
Key: 18

Exercise: Read off the recorded Emax for CCOC(=O)N1CCCN(C2CCC(C#N)(c3cccc(Cl)c3)CC2)CC1 (mixture of isomers) [3-5 mixture of isomers]
Key: 36

Exercise: # return recorded Emax for input CCOC(=O)N[C@H]1CCN(C2CCC(C#N)(c3cccc(C)c3)CC2)C1 (single isomer, unassigned) [1-9 Isomer 2]
Key: 2

Exercise: Specify measured Emax for CCOC(=O)N1CCCN(C2CCC(c3nc(CC)c(C)[nH]3)CC2)CC1 (single isomer, unassigned) [5-1 Isomer 2] .
Key: 7

Exercise: Look up and state reported Emax for CCOC(=O)N(C)[C@H]1CCN(C2CCC(C#N)(c3ccccc3)CC2)C1 (single isomer, unassigned) [1-20 Isomer 2]
Key: 0

Exercise: For the compound CCOC(=O)N1CCCN(C2CCC(C#N)(c3cccc(C)c3)CC2)CC1 (mixture of isomers) [3-8 mixture of isomers] , give its reported Emax.
Key: 7
